target_desc: IκBα-kinase complex (Homo sapiens, UniProt O14920+O15111)
Construct: endogenous in cells; host or cells: HeLa S3 cell extract, S100 fraction; ammonium sulfate precipitation and Superose-6 size exclusion
Sequence (O14920 whole entry): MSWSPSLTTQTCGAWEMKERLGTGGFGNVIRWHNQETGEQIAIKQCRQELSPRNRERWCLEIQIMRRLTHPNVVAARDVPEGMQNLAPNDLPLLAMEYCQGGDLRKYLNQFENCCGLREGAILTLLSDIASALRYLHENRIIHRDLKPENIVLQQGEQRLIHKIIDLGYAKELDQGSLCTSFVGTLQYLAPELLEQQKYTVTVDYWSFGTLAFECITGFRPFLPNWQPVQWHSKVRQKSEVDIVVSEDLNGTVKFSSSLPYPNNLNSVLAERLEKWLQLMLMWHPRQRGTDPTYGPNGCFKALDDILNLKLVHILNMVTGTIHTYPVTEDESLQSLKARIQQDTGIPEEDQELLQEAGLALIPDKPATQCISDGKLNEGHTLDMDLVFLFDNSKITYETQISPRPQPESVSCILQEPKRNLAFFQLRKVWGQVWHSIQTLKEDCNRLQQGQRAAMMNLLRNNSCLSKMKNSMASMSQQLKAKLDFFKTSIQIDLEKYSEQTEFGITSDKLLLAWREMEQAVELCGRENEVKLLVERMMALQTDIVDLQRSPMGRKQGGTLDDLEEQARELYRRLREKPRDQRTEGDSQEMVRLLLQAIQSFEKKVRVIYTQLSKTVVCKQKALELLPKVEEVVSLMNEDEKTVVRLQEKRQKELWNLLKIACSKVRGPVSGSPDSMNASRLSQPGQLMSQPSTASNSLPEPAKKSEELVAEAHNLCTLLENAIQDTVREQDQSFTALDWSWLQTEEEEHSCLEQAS
Sequence (O15111 whole entry): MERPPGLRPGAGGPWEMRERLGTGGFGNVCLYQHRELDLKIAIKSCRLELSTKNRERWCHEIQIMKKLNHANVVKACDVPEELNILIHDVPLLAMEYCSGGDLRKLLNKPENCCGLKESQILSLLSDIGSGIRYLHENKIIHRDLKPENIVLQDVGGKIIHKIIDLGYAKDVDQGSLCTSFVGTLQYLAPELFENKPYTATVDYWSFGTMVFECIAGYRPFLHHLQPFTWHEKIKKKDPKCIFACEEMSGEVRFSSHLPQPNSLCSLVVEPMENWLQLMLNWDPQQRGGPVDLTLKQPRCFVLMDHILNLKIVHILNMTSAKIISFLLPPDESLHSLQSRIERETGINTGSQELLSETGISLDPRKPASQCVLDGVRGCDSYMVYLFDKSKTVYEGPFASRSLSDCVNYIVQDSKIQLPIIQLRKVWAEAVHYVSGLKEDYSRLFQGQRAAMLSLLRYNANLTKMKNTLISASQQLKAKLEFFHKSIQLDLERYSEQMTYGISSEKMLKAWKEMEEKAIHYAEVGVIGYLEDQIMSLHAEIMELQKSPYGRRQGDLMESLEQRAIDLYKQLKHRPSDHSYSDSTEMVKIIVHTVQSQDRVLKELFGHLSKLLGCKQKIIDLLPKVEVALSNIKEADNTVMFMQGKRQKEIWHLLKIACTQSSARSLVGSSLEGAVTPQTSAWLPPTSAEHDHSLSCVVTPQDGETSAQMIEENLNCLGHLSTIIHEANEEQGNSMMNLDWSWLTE
Sequence (Q9Y6K9 whole entry partner): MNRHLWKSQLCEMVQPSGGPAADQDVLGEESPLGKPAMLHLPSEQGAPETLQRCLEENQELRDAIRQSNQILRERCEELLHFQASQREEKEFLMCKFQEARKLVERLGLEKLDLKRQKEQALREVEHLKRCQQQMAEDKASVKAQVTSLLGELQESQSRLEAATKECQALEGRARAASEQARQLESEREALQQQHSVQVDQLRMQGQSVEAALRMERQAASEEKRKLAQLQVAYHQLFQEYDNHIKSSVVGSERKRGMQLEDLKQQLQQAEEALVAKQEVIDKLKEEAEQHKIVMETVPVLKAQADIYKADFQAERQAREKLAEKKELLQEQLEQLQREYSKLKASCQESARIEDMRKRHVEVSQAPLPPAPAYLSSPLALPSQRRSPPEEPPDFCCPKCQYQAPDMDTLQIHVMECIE
measurement_description: IkB-Kinase ELISA;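 note: substrate phosphopeptide captured on Protein-A plates, detected with Streptavidin-HRP and TMB absorbance at 450 nm, activity read from a synthetic phosphopeptide standard curve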
Format: biochemical
experimental_context: IkB-kinase IC50
Structures can show the parent of a compound that is named as a salt.
measurement_kind: IC50

[[record]]
compound = "Clc1cc2c([nH]c3cnccc32)c(Cl)c1OCC1CCCCC1 [Example 96]"
result = "1300 nM"

[[record]]
compound = "CN(C)c1cc(Cl)cc2c1[nH]c1cnccc12 [Example 44, trifluoroacetate]"
result = "2000 nM"

